B1: HDV Ribozyme (parent)
chain: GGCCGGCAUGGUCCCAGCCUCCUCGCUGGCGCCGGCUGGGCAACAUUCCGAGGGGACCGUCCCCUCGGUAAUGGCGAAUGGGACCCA

Variants of: B1
Test: self-cleavage, relative activity (ratio to wild type); higher = more cleavage; co-transcriptional
assay.endpoint: self-cleavage
Just the number, please.

# count of solved cases: 3
Just so you know, measured self-cleavage for G1A U23G came out at 0

Just so you know, measured self-cleavage for A51C G80C came out at 0.0437

Just so you know, measured self-cleavage for U23G C24G came out at 0.16

Next:
Just so you know, measured self-cleavage for U23A U27G came out at 0.762

Just so you know, measured self-cleavage for C22U C49A came out at 0.665

Just so you know, measured self-cleavage for G5C U79G came out at 0

Just so you know, measured self-cleavage for U9C G34C came out at 0.361

Just so you know, measured self-cleavage for G40A A77C came out at 0.427

Just so you know, measured self-cleavage for C3U G52C came out at 0.546

Just so you know, measured self-cleavage for U47A C86G came out at 0.733

Just so you know, measured self-cleavage for U23G G28A came out at 0.0941
